This collection of values is drawn from paper PMC10187093.

tested.system: mushroom tyrosinase (Agaricus bisporus)
Construct: purchased Sigma-Aldrich Chemical Company (St. Louis, MO) and MP Biomedicals (Irvine, CA)
procedure.summary: In vitro mushroom tyrosinase inhibition assay
Type: biochemical
condition.label: 500 µM, single-concentration screen; read-out: % Inhibition of tyrosinase
// reported inhibition at 500 µM for each item listed

compound	inhibition at 500 µM
Cc1[nH]nc2c1CCc1ccccc1-2 [P5, 3-Methyl-4,5-dihydro-2H-benzo[g]indazole]	40%
Cc1cc(-c2ccccc2)n(-c2ccc(Br)cc2)n1	17.3%
CCc1c(C)nn(-c2ccccc2)c1C	55.5%
OC[C@H]1O[C@@H](Oc2ccc(O)cc2)[C@H](O)[C@@H](O)[C@@H]1O [arbutin, 4-hydroxyphenyl β-D-glucopyranoside, reference compound]	59%
O=C1CC(c2ccc(Br)cc2)=NN1c1ccc(Br)cc1	46.9%
Cc1cc(-c2ccccc2)n(-c2ccccc2)n1	97.4%
O=C1CC(c2ccc(Br)cc2)=NN1c1ccc(C(F)(F)F)cc1	37.6%
FC(F)(F)c1cc(-c2ccccc2)n(-c2ccccc2)n1	32.2%
Cc1nn(-c2ccccc2)c2c1CCC2	67.2%
Cc1n[nH]c2c1CCC2 [P2]	20.8%

###

System: SCC-12
procedure.summary: MTT antiproliferative/cytotoxicity assay, SCC-12
Type: cell-based, human
condition.label: Homo sapiens, SCC12, 48 h, read-out: IC50 SCC-12
measured.property: IC50 (µM)

1. CCOC(=O)c1c(C)nn(-c2ccccc2)c1C 49.1

###

tested.system: mushroom tyrosinase (Agaricus bisporus)
Construct: purchased Sigma-Aldrich Chemical Company (St. Louis, MO) and MP Biomedicals (Irvine, CA)
procedure.summary: In vitro mushroom tyrosinase inhibition assay
Assay type: biochemical
condition.label: L-tyrosine substrate; read-out: IC50 tyrosinase inhibition
pIC50: −log10 of the molar value.

compound	pIC50
Cc1cc(-c2ccccc2)n(-c2ccccc2)n1 [P14, 3-Methyl-1,5-diphenyl-1H-pyrazole]	4.80

###

tested.system: mushroom tyrosinase (Agaricus bisporus, UniProt C7FF04)
Construct: purchased Sigma-Aldrich Chemical Company (St. Louis, MO) and MP Biomedicals (Irvine, CA)
Sequence (C7FF04 1-392 limits assumed): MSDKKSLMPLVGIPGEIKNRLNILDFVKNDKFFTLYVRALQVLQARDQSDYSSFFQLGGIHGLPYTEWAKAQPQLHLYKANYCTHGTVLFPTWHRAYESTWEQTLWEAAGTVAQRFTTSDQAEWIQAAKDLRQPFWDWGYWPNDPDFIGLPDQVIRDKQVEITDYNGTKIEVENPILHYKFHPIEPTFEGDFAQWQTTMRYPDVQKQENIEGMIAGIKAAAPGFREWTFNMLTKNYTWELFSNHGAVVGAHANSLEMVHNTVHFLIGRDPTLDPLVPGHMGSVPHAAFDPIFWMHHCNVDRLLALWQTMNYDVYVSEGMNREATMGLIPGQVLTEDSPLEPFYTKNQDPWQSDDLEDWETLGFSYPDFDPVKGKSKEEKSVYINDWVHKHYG
procedure.summary: In vitro mushroom tyrosinase inhibition assay
Type: biochemical
condition.label: > 500 = not biologically relevant; read-out: IC50 Value, mushroom tyrosinase inhibition (Table S1)
pIC50: −log10 of the molar value.

molecule	pIC50
CCc1c(C)nn(-c2ccccc2)c1C [P7]	< 3.30
Cc1onc2c1CCc1ccccc1-2 [P12]	3.47
O=C1CC(c2ccc(Br)cc2)=NN1c1ccccc1 [P24]	< 3.30
O=C1CC(c2ccccc2)=NN1c1ccc(Br)cc1 [P25]	< 3.30
c1ccc(-c2cc(-c3ccccc3)n(-c3ccccc3)n2)cc1 [P13, 1,3,5-Triphenyl-1H-pyrazole]	< 3.30
O=C1CC(c2ccc(Br)cc2)=NN1c1ccc(C(F)(F)F)cc1 [P23]	< 3.30
Cc1cc(-c2ccccc2)n(-c2ccc(Br)cc2)n1 [P16]	< 3.30
Cc1nn(-c2ccccc2)c2c1CCC2 [P8]	3.72
O=C1CC(c2ccc(Br)cc2)=NN1c1ccc(Br)cc1 [P22]	< 3.30
Cc1[nH]nc(-c2ccccc2)c1Cl [P4, 4-Chloro-5-methyl-3-phenyl-1H-pyrazole]	3.71
Cc1cc(-c2ccccc2)no1 [P11, 5-Methyl-3-phenylisoxazole]	3.76
FC(F)(F)c1cc(-c2ccccc2)n(-c2ccccc2)n1 [P15]	< 3.30
CC1=NN(c2ccccc2)C(=O)C1(C)O (stereo not shown) [P20]	< 3.30
Cc1[nH]nc2c1ccc1ccccc12 [P6, 3-Methyl-2H-benzo[g]indazole]	< 3.30
COc1ccc(-n2nc(C)cc2-c2ccccc2)cc1 [P18]	3.81
CCc1c(C)n[nH]c1C [P1, 4-Ethyl-3,5-dimethyl-1H-pyrazole]	< 3.30
Cc1c2c(nn1-c1ccccc1)-c1ccccc1CC2 [P9]	< 3.30
Cc1cc(-c2ccccc2)n[nH]1 [P3, 5-Methyl-3-phenyl-1H-pyrazole]	< 3.30
Cc1cc(-c2ccccc2)n(-c2ccc(Cl)cc2)n1 [P17]	3.78
Cc1n[nH]c2c1CCC2 [P2]	< 3.30
Cc1cc(-c2ccccc2)n(-c2ccc(S(N)(=O)=O)cc2)n1 [P19]	< 3.30
Cc1[nH]nc2c1CCc1ccccc1-2 [P5, 3-Methyl-4,5-dihydro-2H-benzo[g]indazole]	< 3.30

###

tested.system: mushroom tyrosinase (Agaricus bisporus)
Construct: purchased Sigma-Aldrich Chemical Company (St. Louis, MO) and MP Biomedicals (Irvine, CA)
procedure.summary: In vitro mushroom tyrosinase inhibition assay
Type: biochemical
condition.label: 500 µM, single-concentration screen; read-out: % Inhibition of tyrosinase
measured.property: inhibition at 500 µM (%)

compound	measured.property	reported.result
Cc1c2c(nn1-c1ccccc1)-c1ccccc1CC2 [P9]	inhibition at 500 µM	9.49
Cc1cc(-c2ccccc2)n[nH]1 [P3, 5-Methyl-3-phenyl-1H-pyrazole]	inhibition at 500 µM	42.6
Cc1[nH]nc(-c2ccccc2)c1Cl [P4, 4-Chloro-5-methyl-3-phenyl-1H-pyrazole]	inhibition at 500 µM	68.7
Cc1onc2c1CCc1ccccc1-2 [P12]	inhibition at 500 µM	69.7
c1ccc(-c2cc(-c3ccccc3)n(-c3ccccc3)n2)cc1 [P13, 1,3,5-Triphenyl-1H-pyrazole]	inhibition at 500 µM	7.66
O=C1CC(c2ccccc2)=NN1c1ccc(Br)cc1 [P25]	inhibition at 500 µM	21.9
Cc1cc(-c2ccccc2)n(-c2ccc(S(N)(=O)=O)cc2)n1 [P19]	inhibition at 500 µM	21.2
Cc1cc(-c2ccccc2)no1 [P11, 5-Methyl-3-phenylisoxazole]	inhibition at 500 µM	88
O=C1CC(c2ccc(Br)cc2)=NN1c1ccccc1 [P24]	inhibition at 500 µM	35.2
Cc1[nH]nc2c1ccc1ccccc12 [P6, 3-Methyl-2H-benzo[g]indazole]	inhibition at 500 µM	81.7
